Test system: β-secretase endoprotease activity in chromaffin vesicle lysate
assay-name: Protease inhibitors of β-secretase endoprotease activity in chromaffin vesicle lysate (Z*Val-Lys-Met-MCA cleavage, AMC fluorescence)
Assay type: biochemical, bovine
conditions: text summary of Table II
measurement-label: inhibition of β-secretase endoprotease activity in chromaffin vesicle lysate, in words

{"molecule": "CC(C)CCNC(=O)[C@H](CC(C)C)NC(=O)[C@H]1O[C@@H]1C(=O)O [E64c]", "result": "completely inhibited"}
{"molecule": "CC(=O)N[C@@H](CC(C)C)C(=O)N[C@@H](CC(C)C)C(=O)N[C@H](C=O)CCCNC(=N)N [Leupeptin]", "result": "completely inhibited"}
